# experimentalProtocol: In vitro cell permeability assay
# measurementContext: pig, LLC-PK1, pH 7.4, Efflux ratio BA/AB, LLC-Parent, no inhibitor
experimentalEndpoint: efflux ratio at 120 min, 30 nM

[[record]]
molecule = "C[C@H]1O[C@@H](O[C@H]2[C@@H](O)C[C@H](O[C@H]3[C@@H](O)C[C@H](O[C@H]4CC[C@@]5(C)[C@H](CC[C@@H]6[C@@H]5C[C@@H](O)[C@]5(C)[C@@H](C7=CC(=O)OC7)CC[C@]65O)C4)O[C@@H]3C)O[C@@H]2C)C[C@H](O)[C@@H]1O [3H-Digoxin, Digoxin, reference compound]"
experimentalendpoint = "efflux ratio at 120 min, 30 nM"
measuredvalue = 0.94


====

# experimentalProtocol: In vitro cell permeability assay
# measurementContext: pig, LLC-PK1, pH 7.4, with elacridar (GF120918) 5 µM, Papp BA, LLC-Parent, basolateral to apical, + 5 µM GF120918
experimentalEndpoint: Papp B→A at 120 min, 30 nM (×10⁻⁶ cm/s)

[[record]]
compound = "C[C@H]1O[C@@H](O[C@H]2[C@@H](O)C[C@H](O[C@H]3[C@@H](O)C[C@H](O[C@H]4CC[C@@]5(C)[C@H](CC[C@@H]6[C@@H]5C[C@@H](O)[C@]5(C)[C@@H](C7=CC(=O)OC7)CC[C@]65O)C4)O[C@@H]3C)O[C@@H]2C)C[C@H](O)[C@@H]1O [3H-Digoxin, Digoxin, reference compound]"
readoutunits = "×10⁻⁶ cm/s"
measuredvalue = 2.37


====

# System: P-gp (MDR1)
# experimentalProtocol: In vitro cell permeability / P-gp substrate assay
# measurementContext: pig, LLC-PK1, pH 7.4, with elacridar (GF120918) 5 µM, Papp AB, LLC-MDR1, apical to basolateral, + 5 µM GF120918
experimentalEndpoint: Papp A→B at 120 min, 30 nM (×10⁻⁶ cm/s)

[[record]]
compound = "C[C@H]1O[C@@H](O[C@H]2[C@@H](O)C[C@H](O[C@H]3[C@@H](O)C[C@H](O[C@H]4CC[C@@]5(C)[C@H](CC[C@@H]6[C@@H]5C[C@@H](O)[C@]5(C)[C@@H](C7=CC(=O)OC7)CC[C@]65O)C4)O[C@@H]3C)O[C@@H]2C)C[C@H](O)[C@@H]1O [3H-Digoxin, Digoxin, reference compound]"
measuredvalue = 2.98


====

# System: H1/NCa HA (A/New Caledonia/20/1999 (H1N1))
# Type: binding, influenza A virus
Starred links: 1 amine or outer side, 2 acyl side, 3 side chain; linkers in the order of their positions; H or OH if unused. Positions of bridges follow the written chain, without caps; N, C: chain ends. Residues, ends and D or L forms follow the SMILES beside them. Suc = O=C(CCC(=O)[*:2])[*:1]
experimentalEndpoint: IC50 (µM)

[[record]]
compound = "CSCC[C@@H]1NC(=O)CNC(=O)CNC(=O)[C@H](C)NC(=O)[C@H](C(C)C)NC(=O)CNC(=O)[C@H](CC(C)C)NC(=O)[C@@H]2CCCN2C(=O)[C@H](CC(=O)O)NC(=O)[C@H](CCC(=O)O)NC(=O)[C@H](Cc2ccc(O)cc2)NC(=O)[C@H](CC(C)C)NC(=O)CNC1=O"
experimentalendpoint = "IC50"
measuredvalue = 1.24

[[record]]
compound = "CSCC[C@@H]1NC(=O)[C@H](CCC(=O)O)NC(=O)CNC(=O)[C@H](C)NC(=O)[C@H](C(C)C)NC(=O)CNC(=O)[C@H](CC(C)C)NC(=O)[C@@H]2CCCN2C(=O)[C@H](CC(=O)O)NC(=O)[C@H](CCCNC(=N)N)NC(=O)[C@H](Cc2ccc(O)cc2)NC(=O)[C@H](CC(C)C)NC(=O)[C@@H](NC(=O)CCC(=O)O)CSSC[C@@H](C(N)=O)NC(=O)CNC1=O [CP10] (Suc-CLYRDPLGVAGEMGC-NH2; disulfide 1-15)"
experimentalendpoint = "IC50"
measuredvalue = 2.93

[[record]]
compound = "CSCC[C@@H]1NC(=O)CNC(=O)CNC(=O)[C@H](C)NC(=O)[C@H](C(C)C)NC(=O)CNC(=O)[C@H](CC(C)C)NC(=O)[C@@H]2CCCN2C(=O)[C@H](CC(=O)O)NC(=O)[C@H](CCCNC(=N)N)NC(=O)[C@H](Cc2ccc(O)cc2)NC(=O)[C@@H](NC(=O)CCC(=O)O)CSSC[C@@H](C(N)=O)NC1=O"
experimentalendpoint = "IC50"
measuredvalue = 4.99

[[record]]
compound = "CSCC[C@@H]1NC(=O)CNC(=O)CNC(=O)[C@H](C)NC(=O)[C@H](C(C)C)NC(=O)CNC(=O)[C@H](CC(C)C)NC(=O)[C@@H]2CCCN2C(=O)[C@H](CC(=O)O)NC(=O)[C@H](CCC(=O)O)NC(=O)[C@H](Cc2ccc(O)cc2)NC(=O)[C@H](CC(C)C)NC(=O)[C@H](CO)NC(=O)[C@@H]2CCCN2C(=O)[C@H]2CCCN2C(=O)[C@H](C(C)C)NC(=O)CNC1=O"
experimentalendpoint = "IC50"
measuredvalue = 12.7

